Values were extracted from the RNAGym collection of RNA variant scans (doi:10.1073/pnas.2313332121).

B1: TPR t1 (parent)
chain: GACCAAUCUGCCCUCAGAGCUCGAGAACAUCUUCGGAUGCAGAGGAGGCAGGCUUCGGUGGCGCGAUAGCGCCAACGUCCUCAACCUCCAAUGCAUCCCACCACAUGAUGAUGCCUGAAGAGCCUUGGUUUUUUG

# Variants of: B1
# PROTOCOL_NOTES: polymerase ribozyme fitness, log enrichment relative to wild type (log ratio); higher = more active; in vitro selection for triplet polymerase activity
Listed here: items and their measured polymerase ribozyme fitness (log ratio).
VALUE_KIND: polymerase ribozyme fitness (log ratio)

>>> print(df.to_string())
                            variant_name                               value_kind  measurement
 0                       G10U U14G U116C  polymerase ribozyme fitness (log ratio)        -1.69
 1                     U7A C8G A16C A46U  polymerase ribozyme fitness (log ratio)        -0.61
 2                              A6G C11U  polymerase ribozyme fitness (log ratio)       -0.107
 3                    A5C A6U G69U A121G  polymerase ribozyme fitness (log ratio)         2.34
 4                             G69A C89G  polymerase ribozyme fitness (log ratio)        -5.32
 5                  C53A G63A U78C G110U  polymerase ribozyme fitness (log ratio)        -3.53
 6                             G19C C70U  polymerase ribozyme fitness (log ratio)        -2.55
 7                             A27C G61C  polymerase ribozyme fitness (log ratio)        -5.63
 8                            C76A G113C  polymerase ribozyme fitness (log ratio)        -3.53
 9                        C11A G36U G77C  polymerase ribozyme fitness (log ratio)        -3.38
10                            G52C U129C  polymerase ribozyme fitness (log ratio)        -1.64
11                             C80U C88G  polymerase ribozyme fitness (log ratio)        -1.25
12           A26U A84C C102U C115A U133G  polymerase ribozyme fitness (log ratio)        -6.15
13                  A46C G48U C70A G113A  polymerase ribozyme fitness (log ratio)        -3.12
14              A2G C56A C73U A84U G120U  polymerase ribozyme fitness (log ratio)        -1.68
15        C8A C12A G61C G69U G120A U129G  polymerase ribozyme fitness (log ratio)        -1.45
16                             C20G A43G  polymerase ribozyme fitness (log ratio)        -3.54
17                            G63U G120A  polymerase ribozyme fitness (log ratio)       -0.542
18                        C12G C56A C70G  polymerase ribozyme fitness (log ratio)        -3.89
19                      C72U U116A G120U  polymerase ribozyme fitness (log ratio)        -1.54
20                       C86G C88U A105G  polymerase ribozyme fitness (log ratio)        -4.95
21        C40A G57C U81G C82G C97A A111U  polymerase ribozyme fitness (log ratio)        -6.79
22                        C8G C56A C123A  polymerase ribozyme fitness (log ratio)         1.29
23                            C72A C114G  polymerase ribozyme fitness (log ratio)        -2.31
24                             C40U G77A  polymerase ribozyme fitness (log ratio)        -1.17
25             A29C G39A A50U G52A U112C  polymerase ribozyme fitness (log ratio)        -5.09
26                                  C53U  polymerase ribozyme fitness (log ratio)         -0.1
27                            G36C C104U  polymerase ribozyme fitness (log ratio)         -1.1
28             C13U G17A A43C U59C U132C  polymerase ribozyme fitness (log ratio)        -4.55
29                C56A C104A A105U G110A  polymerase ribozyme fitness (log ratio)        -7.24
30                   A18U G45C G57C G69U  polymerase ribozyme fitness (log ratio)        -1.15
31                       C72U G93U C123G  polymerase ribozyme fitness (log ratio)        -1.42
32                  C8U C40U C104A A119G  polymerase ribozyme fitness (log ratio)        -1.19
33                 A74U U87A C102U C104A  polymerase ribozyme fitness (log ratio)        -2.53
34                             U38G C79G  polymerase ribozyme fitness (log ratio)        -2.67
35               C8A C28A G45A C56G G69U  polymerase ribozyme fitness (log ratio)        -2.82
36         G10A G45A G63U C82A C85A U92C  polymerase ribozyme fitness (log ratio)        -5.42
37                       G44U G77A C101A  polymerase ribozyme fitness (log ratio)        -1.37
38                             G39A C72G  polymerase ribozyme fitness (log ratio)       -0.976
39                             G48A G63A  polymerase ribozyme fitness (log ratio)        -1.14
40                             G48A C88G  polymerase ribozyme fitness (log ratio)       -0.075
41                             C72A G93A  polymerase ribozyme fitness (log ratio)       -0.667
42                 C12U A37U A111G C123A  polymerase ribozyme fitness (log ratio)       -0.195
43                        U7A C73G U129G  polymerase ribozyme fitness (log ratio)         -2.6
44                   C12U A27C C62A A83U  polymerase ribozyme fitness (log ratio)        -6.02
45                            G42A G127U  polymerase ribozyme fitness (log ratio)         -2.7
46                 C40U C73G C123G U132A  polymerase ribozyme fitness (log ratio)       0.0747
47                             C28G G93A  polymerase ribozyme fitness (log ratio)        -3.77
48                    C3U A50G U55G G63A  polymerase ribozyme fitness (log ratio)        -1.45
49                            A37G C114A  polymerase ribozyme fitness (log ratio)        -1.28
50                             G45A C70U  polymerase ribozyme fitness (log ratio)        -1.29
51                    U7G C13A C49G U96C  polymerase ribozyme fitness (log ratio)       -0.772
52                       C22G C72G C124A  polymerase ribozyme fitness (log ratio)        -2.22
53                             C15A C72U  polymerase ribozyme fitness (log ratio)        -2.75
54                        G58C C73A C98G  polymerase ribozyme fitness (log ratio)        -6.44
55                        A29U G45A G47U  polymerase ribozyme fitness (log ratio)        -4.18
56                  G10A C40U G69C C123G  polymerase ribozyme fitness (log ratio)       -0.405
57  C11A C12A G71A C89G A90G C101U U133G  polymerase ribozyme fitness (log ratio)        -4.22
58                U81A G113C U130G U132A  polymerase ribozyme fitness (log ratio)        -3.31
59           C56G C86U U112A A118G A119G  polymerase ribozyme fitness (log ratio)         1.32
